B1: TPR t1 (parent)
chain: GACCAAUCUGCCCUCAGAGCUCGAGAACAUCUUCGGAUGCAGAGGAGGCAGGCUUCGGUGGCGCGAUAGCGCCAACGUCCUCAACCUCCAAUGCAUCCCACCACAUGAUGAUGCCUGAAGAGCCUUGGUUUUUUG

- Variants of: B1
- Protocol notes: polymerase ribozyme fitness, log enrichment relative to wild type (log ratio); higher = more active; in vitro selection for triplet polymerase activity
Exercise: state measured polymerase ribozyme fitness (log ratio) for each of the variants provided.
Numbers only.

Solved cases below.
>>> df
          mutation  data_value
0  G48U A84C C115A       -1.64
1       C22U G120C       -2.63
2   U38G G52A G63C       -2.23

Required: polymerase ribozyme fitness (log ratio), one value per variant below.
1. A16U U21G C114U
2. C89U G113U
3. A74G U96G
4. C53U G61C

Result string:
[-4.99, -3.66, -0.295, 0.349]
